# Raw Data values compiled below
- target_system: human PPARγ- LBD (Homo sapiens, UniProt P37231)
- Construct: a mixture of a human PPARγ- LBD labelled with glutathione S-transferase (GST)
- Sequence (P37231 238-503 limits assumed): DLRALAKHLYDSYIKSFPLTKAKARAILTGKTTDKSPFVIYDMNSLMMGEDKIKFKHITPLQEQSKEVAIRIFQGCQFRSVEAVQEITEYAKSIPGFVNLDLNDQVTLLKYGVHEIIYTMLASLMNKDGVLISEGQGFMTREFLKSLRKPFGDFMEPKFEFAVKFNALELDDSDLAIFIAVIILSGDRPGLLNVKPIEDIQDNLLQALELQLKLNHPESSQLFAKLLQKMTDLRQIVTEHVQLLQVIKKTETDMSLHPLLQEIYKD
- experiment_summary: Lanthascreen TR-FRET PPARγ competitive binding assay
- condition_details: TR-FRET, 0.0000512 µM
readout_type: Raw Data (RLU)

structure_smiles_string: C=CCc1ccc(OCC(=O)Nc2ccccc2Cl)c(OC)c1
readout_type: Raw Data
numeric_result: 1.795
--
structure_smiles_string: C=CCc1ccc(OCC(=O)Nc2ccccc2C)c(OC)c1
readout_type: Raw Data
numeric_result: 1.881
--
structure_smiles_string: C=CCc1ccc(OCC(=O)Nc2cccc(C(F)(F)F)c2)c(OC)c1
readout_type: Raw Data
numeric_result: 2.02
--
structure_smiles_string: C=CCc1ccc(OCC(=O)Nc2ccccc2)c(OC)c1
readout_type: Raw Data
numeric_result: 1.916
--
structure_smiles_string: C=CCc1ccc(OCC(=O)Nc2ccc([N+](=O)[O-])cc2)c(OC)c1
readout_type: Raw Data
numeric_result: 2.014
--
structure_smiles_string: C=CCc1ccc(OCC(=O)Nc2cccc(Cl)c2)c(OC)c1
readout_type: Raw Data
numeric_result: 2.087
